Entries and their TGI
System: SK-MEL-28 melanoma
Experiment: NCI tumour cell line growth inhibition, 48 h

Example entries and their recorded answers appear below.
[
  {
    "molecule": "N#CC1(C#N)C(=O)c2ccncc2C1=O",
    "TGI": "> 100 µM"
  },
  {
    "molecule": "CC(=O)N(N=O)c1ccc(N(N=O)C(C)=O)cc1",
    "TGI": "> 100 µM"
  },
  {
    "molecule": "COc1ccccc1N1C(=O)CSC1c1cccc(Oc2ccccc2)c1 (centres undefined)",
    "TGI": "34.6 µM"
  }
]

Next, consider the following molecule.
Input: Endpoint output: TGI of CCSC1=N/C(=C\c2ccco2)C(Nc2ccc(C)cc2)=N1 . Value?
Output: > 100 µM
